- Test system: Plasmodium falciparum
- ASSAY: Antiplasmodial activity chloroquinone-resistant Plasmodium falciparum K1 by parasite lactate dehydrogenase assay
- Assay type: functional, organism-based
MEASURED_METRIC: IC50
Answer with the figure and its unit, nothing else.

Query: IC50; subject: `Oc1cc(CCCc2cccs2)ccc1CN1CCCCC1`
0.02 µM

----------
- System: Plasmodium falciparum
- ASSAY: Antiplasmodial activity chloroquinone-sensitive Plasmodium falciparum NF54 by parasite lactate dehydrogenase assay
- Format: functional, organism-based
- TEST_SETTINGS: Plasmodium falciparum, NF54
Reported IC50 values follow for various compounds
Field format: number, assumed nM, no unit text.

Known IC50 results, listed for orientation:
| QUERY_SMILES | MEASURED_TARGET | IC50 (nM) |
| --- | --- | --- |
| Oc1ccc(CCCc2ccc(C(F)(F)F)cc2)cc1CN1CCCCC1 | Plasmodium falciparum | 280 |
| CN(C)Cc1ccc(CCCc2ccccc2)cc1O | Plasmodium falciparum | 90 |
| O=C(CCc1ccc(CN2CCCCC2)c(O)c1)c1ccc(F)cc1 | Plasmodium falciparum | 260 |
| CN1CCN(Cc2ccc(CCCc3ccccc3)cc2O)CC1 | Plasmodium falciparum | 790 |
| CC(C)Nc1ccc(CCCc2ccc(CN3CCCCC3)c(O)c2)cc1 | Plasmodium falciparum | 180 |

Query: IC50; subject: `CCN1CCN(Cc2ccc(CCCc3ccccc3)cc2O)CC1`
410

Query: IC50; subject: `Oc1cc(CCCc2ccccc2)ccc1CN1CCCC1`
40

Query: IC50; subject: `Oc1cc(CCc2ccccc2)ccc1CN1CCCCC1`
120

Query: IC50; subject: `CC(=O)CCc1ccc(CN2CCCCC2)c(O)c1`
1710
